- measurement-notes: Selectivity index, ratio of IC50 for human PBMC to IC50 for human Jurkat cells
- Type: toxicity
- condition-summary: PBMC versus Jurkat cells, read-out: Ratio IC50
quantity-kind: selectivity ratio
Kindly provide the number alone.

stdin: For the molecule O=C(CCCC(=O)N1C[C@@H](CCl)c2c1cc(O)c1ccccc21)N1C[C@@H](CCl)c2c1cc(O)c1ccccc21 , what selectivity ratio is on record?
stdout: 1430

====

- measurement-notes: Selectivity index, ratio of IC50 for human PBMC to IC50 for human CCRF-CEM cells
- Type: toxicity
- condition-summary: PBMC versus CCRF-CEM cells, read-out: Ratio IC50
quantity-kind: selectivity ratio
Give the figure by itself; no unit, no explanation.

stdin: Which selectivity ratio value belongs to O=C(CCCC(=O)N1C[C@@H](CCl)c2c1cc(O)c1ccccc21)N1C[C@@H](CCl)c2c1cc(O)c1ccccc21 ?
stdout: 2220

====

- system-tested: UniProt P42684
- Sequence (P42684 whole entry, the tested form may be a part): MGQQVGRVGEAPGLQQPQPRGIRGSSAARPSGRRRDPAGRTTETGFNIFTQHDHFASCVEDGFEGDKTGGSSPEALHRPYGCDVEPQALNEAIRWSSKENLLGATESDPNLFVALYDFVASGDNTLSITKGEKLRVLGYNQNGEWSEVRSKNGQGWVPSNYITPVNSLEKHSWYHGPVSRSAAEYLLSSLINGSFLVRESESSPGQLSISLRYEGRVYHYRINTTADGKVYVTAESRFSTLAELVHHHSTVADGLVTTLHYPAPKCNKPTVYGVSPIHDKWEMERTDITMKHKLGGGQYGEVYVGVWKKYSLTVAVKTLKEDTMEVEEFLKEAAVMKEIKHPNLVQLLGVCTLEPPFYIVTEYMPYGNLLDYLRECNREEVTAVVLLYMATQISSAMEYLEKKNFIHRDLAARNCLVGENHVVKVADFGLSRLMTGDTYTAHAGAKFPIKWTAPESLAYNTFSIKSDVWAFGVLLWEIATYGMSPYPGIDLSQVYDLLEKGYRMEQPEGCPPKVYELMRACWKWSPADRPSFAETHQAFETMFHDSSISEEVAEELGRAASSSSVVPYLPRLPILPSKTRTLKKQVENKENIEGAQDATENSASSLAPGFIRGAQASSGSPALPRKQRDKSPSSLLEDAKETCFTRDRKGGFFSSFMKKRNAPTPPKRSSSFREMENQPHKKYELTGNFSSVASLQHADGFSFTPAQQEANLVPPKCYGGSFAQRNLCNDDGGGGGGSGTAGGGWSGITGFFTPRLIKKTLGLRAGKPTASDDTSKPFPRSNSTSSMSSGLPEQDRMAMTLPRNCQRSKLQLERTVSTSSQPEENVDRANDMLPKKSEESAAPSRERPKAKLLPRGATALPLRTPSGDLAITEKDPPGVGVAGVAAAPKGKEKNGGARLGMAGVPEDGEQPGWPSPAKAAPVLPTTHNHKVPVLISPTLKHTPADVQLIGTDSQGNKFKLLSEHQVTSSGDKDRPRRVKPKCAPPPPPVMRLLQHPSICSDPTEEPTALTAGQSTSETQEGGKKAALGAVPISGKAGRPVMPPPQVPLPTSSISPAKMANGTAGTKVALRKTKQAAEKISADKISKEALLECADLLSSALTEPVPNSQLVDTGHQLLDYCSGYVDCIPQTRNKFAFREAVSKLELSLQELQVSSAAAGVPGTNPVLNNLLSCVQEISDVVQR
- measurement-notes: Inhibition of recombinant human N-terminal GST/His6-tagged ABL2 (M1 to P650 residues) expressed in sf9 cells using Poly(Glu,Tyr) 4:1 as substrate after 60 mins in presence of [gamma33P]-ATP by scintillation counting method
Below, each entry is listed with its recorded IC50.
Response body: numeric value in nM, unit text excluded.

[
  {
    "chem-smiles": "O=C(CCCC(=O)N1C[C@@H](CCl)c2c1cc(O)c1ccccc21)N1C[C@@H](CCl)c2c1cc(O)c1ccccc21",
    "endpoint-unit": "nM",
    "IC50": 685
  }
]

# evaluate next
stdin: # get_value(readout= IC50, system= UniProt P42684) for C[C@@H]1CN(C(=O)CCCC(=O)N2C[C@@H](C)c3c2cc(O)c2ccccc32)c2cc(O)c3ccccc3c21
stdout: 540

====

- measurement-notes: Selectivity index, ratio of IC50 for human PBMC to IC50 for human A549 cells
- Format: toxicity
- condition-summary: PBMC versus A549 cells, read-out: Ratio IC50
quantity-kind: selectivity ratio
Lab note: record the figure alone, no unit after it.

stdin: # input compound: O=C(CCCC(=O)N1C[C@@H](CCl)c2c1cc(O)c1ccccc21)N1C[C@@H](CCl)c2c1cc(O)c1ccccc21 ; wanted: its selectivity ratio
stdout: 741

====

- Test system: PBMC
- measurement-notes: Cytotoxicity against human PBMC assessed as reduction in cell viability after 24 hrs by MTT assay
- Type: cell-based
quantity-kind: IC50 (nM)
Just the number please, in nM, no unit attached.

stdin: # get_value(readout= IC50, system= PBMC) for O=C(CCCC(=O)N1C[C@@H](CCl)c2c1cc(O)c1ccccc21)N1C[C@@H](CCl)c2c1cc(O)c1ccccc21
stdout: 2000

====

- measurement-notes: Selectivity index, ratio of IC50 for human PBMC to IC50 for human CEM/ADR5000 cells
- Format: toxicity
- condition-summary: PBMC versus CEM/ADR5000 cells, read-out: Ratio IC50
quantity-kind: selectivity ratio
Response field accepts a number only; no unit should be typed.

stdin: # get_value(readout='selectivity ratio', item= O=C(CCCC(=O)N1C[C@@H](CCl)c2c1cc(O)c1ccccc21)N1C[C@@H](CCl)c2c1cc(O)c1ccccc21 )
stdout: 290

Ref: ChEMBL document CHEMBL4371099
